Data provenance: patent US12612386B2

Could you please report measured pest or weed control at 5 µg/cm2, 500 g/ha for the items listed next?
System: adult brown dog ticks (Rhipicephalus sanguineus)
Experiment: Rhipicephalus sanguineus in-vitro contact test, adult brown dog ticks
Assay type: in vivo
Settings: 48 h, read-out: efficacy (ticks dead or moribund)
Description: Rhipicephalus sanguineus—In-Vitro Contact Tests with Adult Brown Dog Ticks 9 mg compound is solved in 1 mL acetone and diluted with acetone to the desired concentration. […] After the solvent has evaporated, each test tube is filled with 5-10 adult brown dog ticks (Rhipicephalus sanguineus), closed with a perforated lid and incubated in a lying position at room temperature and relative humidity. After 48 hours efficacy is determined. […]
Please give a number only; it is taken to be in %.

Please report the measured pest or weed control at 5 µg/cm2, 500 g/ha for Cc1nc([C@H](C)NC(=O)c2cc(OC(F)F)cc(OC(F)F)c2)n(-c2cc(C(N)=O)ncn2)n1
100

Please report the measured pest or weed control at 5 µg/cm2, 500 g/ha for C[C@H](NC(=O)c1cc(Cl)cc(OC(F)(F)F)c1)c1ncnn1-c1cc(C(N)=O)ncn1
80

Please report the measured pest or weed control at 5 µg/cm2, 500 g/ha for Cc1nc([C@H](C)NC(=O)c2cc(Cl)cc(SC(F)(F)F)c2)n(-c2cc(C#N)ncn2)n1
100

Please report the measured pest or weed control at 5 µg/cm2, 500 g/ha for C[C@H](NC(=O)c1cc(OC(F)(F)F)cc(OC(F)(F)F)c1)c1ncnn1-c1cc(C(N)=O)ncn1
80

Please report the measured pest or weed control at 5 µg/cm2, 500 g/ha for CC(C)N(C)C(=O)c1cc(-n2ncnc2[C@H](C)NC(=O)c2cc(OC(F)F)cc(C3CC3)c2)ncn1
100

Please report the measured pest or weed control at 5 µg/cm2, 500 g/ha for C[C@H](NC(=O)c1cc(Cl)cc(Cl)c1)c1ncnn1-c1cc(C(N)=O)ncn1
100

Please report the measured pest or weed control at 5 µg/cm2, 500 g/ha for CNC(=O)c1cc(-n2ncnc2[C@H](C)NC(=O)c2cc(Cl)cc(OC(F)(F)F)c2)ncn1
100

Please report the measured pest or weed control at 5 µg/cm2, 500 g/ha for C[C@H](NC(=O)c1cc(Br)cc(OC(F)F)c1)c1ncnn1-c1cc(C#N)ncn1
100

Please report the measured pest or weed control at 5 µg/cm2, 500 g/ha for C[C@H](NC(=O)c1cc(Br)cc(Br)c1)c1ncnn1-c1cc(C(N)=O)ncn1
100

Please report the measured pest or weed control at 5 µg/cm2, 500 g/ha for Cc1nc([C@H](C)NC(=O)c2cc(Cl)cc(OC(F)(F)F)c2)n(-c2cc(C(N)=O)ncn2)n1
100

Please report the measured pest or weed control at 5 µg/cm2, 500 g/ha for Cc1nc([C@H](C)NC(=O)c2cc(C(F)(F)F)cc(C(F)(F)F)c2)n(-c2cc(C(=O)N(C)CC3CC3)ncn2)n1
100

====

System: adult cat fleas (Ctenocephalides felis)
Assay: Ctenocephalides felis in-vitro contact test, adult cat flea
Format: in vivo
Conditions: 5 μg/cm^2 (=500 g/ha), after 48 hours
Method: Ctenocephalides felis—In-Vitro Contact Tests Adult Cat Flea 9 mg compound is solved in 1 mL acetone and diluted with acetone to the desired concentration. […] After the solvent has evaporated, each test tube is filled with 5-10 adult cat fleas (Ctenocephalides felis), closed with a perforated lid and incubated in a lying position at room temperature and relative humidity. After 48 hours efficacy is determined. […]
VALUE_KIND: efficacy (fleas dead or moribund) (%)
Please give a number only; it is taken to be in %.

Please report the measured efficacy (fleas dead or moribund) for C[C@H](NC(=O)c1cc(C#N)cc(OC(F)(F)F)c1)c1ncnn1-c1cc(C#N)ncn1
90

Please report the measured efficacy (fleas dead or moribund) for Cc1nc([C@H](C)NC(=O)c2cc(Br)cc(OC(F)F)c2)n(-c2cc(C(N)=O)ncn2)n1
100

Please report the measured efficacy (fleas dead or moribund) for CNC(=O)c1cc(-n2ncnc2[C@H](C)NC(=O)c2cc(OC(F)F)cc(C3CC3)c2)ncn1
100

Please report the measured efficacy (fleas dead or moribund) for CCN(C)C(=O)c1cc(-n2ncnc2[C@H](C)NC(=O)c2cc(C(F)(F)F)cc(C(F)(F)F)c2)ncn1
100
